Tested on: OVCAR-3
Assay: NCI tumour cell line growth inhibition, 48 h
Activity calls are given as the source filed them. Cut-off read from the data, not from the text of the source: active = GI50 up to about 1.1 µM and inactive = higher.
The entries below are paired with their reported GI50.

molecule: COc1cc(/C=C2\C[C@H]3[C@@H]4CC=C5C[C@@H](N6CCCC6)CC[C@]5(C)[C@H]4CC[C@]3(C)[C@H]2OC(C)=O)cc(OC)c1OC
study.target: OVCAR-3
GI50: 15.5 µM (inactive)

molecule: O=c1cc(-c2ccccc2)oc2cc(OCCCCCCCCCCOc3ccc4c(=O)cc(-c5ccccc5)oc4c3)ccc12
study.target: OVCAR-3
GI50: > 100 µM (inactive)

molecule: CCC(Oc1ccc(OC)c2c1C(=O)CCC2)C(=O)O (stereo not drawn)
study.target: OVCAR-3
GI50: > 100 µM (inactive)

molecule: COC(=O)CC1N/C(=N\C#N)N(CCc2c[nH]c3ccccc23)C1=O (stereo not drawn)
study.target: OVCAR-3
GI50: > 100 µM (inactive)

molecule: O=c1[nH]c(=O)n(COCCO)cc1-c1ccccc1
study.target: OVCAR-3
GI50: > 100 µM (inactive)

molecule: CCOC(=O)C1(C(=O)OCC)CC=C(C)CC12C(=O)Nc1ccccc12 (stereo not drawn)
study.target: OVCAR-3
GI50: > 100 µM (inactive)

molecule: CCCCCCCCCCC(O)[C@H]1CCC(C2CC[C@H]([C@H](O)CCCCCCCCCCC(O)CC3=CC(C)OC3=O)O2)O1 (stereo partly drawn)
study.target: OVCAR-3
GI50: 1.71 µM (inactive)

molecule: O=C1NC(Cc2c[nH]c3ccccc23)C(=O)N2C(C3CCCCC3)c3[nH]c4ccccc4c3C[C@@H]12 (stereo partly drawn)
study.target: OVCAR-3
GI50: 2.38 µM (inactive)

* * *

System: HOP-92
Experiment: NCI tumour cell line growth inhibition, 48 h
Active and inactive are the calls of the source. Rule as the data show it: active = GI50 up to about 1.1 µM and inactive = higher.
The entries below are paired with their reported GI50.

compound: CN(N)C(=O)NCCCl
GI50: > 100 µM (inactive)
--
compound: Oc1cc(/C=C/c2ccccc2)nc2cc3c(cc12)OCO3
GI50: 2.08 µM (inactive)
--
compound: O=P(O)(CCP(=O)(O)c1ccccc1)c1ccccc1
GI50: > 100 µM (inactive)
--
compound: C/C=C/C(CC(O)(C(F)(F)F)C(F)(F)F)=N/NC(N)=S
GI50: > 10 µM (inactive)
--
compound: CC1CCC(=O)C(C(=O)CC2CC(=O)N(C)C(=O)C2)C1 (configuration not stated)
GI50: > 100 µM (inactive)
--
compound: O=C(NC1(C(=O)O)CCCC1)c1ccccc1
GI50: > 100 µM (inactive)
--
compound: Cn1c(=O)c2[nH]c(Nc3cccc(Cl)c3)nc2n(C)c1=O
GI50: 2.78 µM (inactive)

* * *

System: ACHN
Assay: NCI tumour cell line growth inhibition, 48 h
Activity calls are given as the source filed them. Cut-off read from the data, not from the text of the source: active = GI50 up to about 1.1 µM and inactive = higher.

compound: CCOC(=O)c1cn2c(n1)sc1cc(OC)ccc12
GI50: 8.75 µM (inactive)
//
compound: CC(=O)NC1=C(NCC(C)C)C(=O)c2ccccc2C1=O
GI50: > 100 µM (inactive)
//
compound: C=C(C)[C@@H](O)[C@H](O)C[C@H](C)C1CC[C@]2(C)C1=CC[C@@H]1[C@@]3(C)CC[C@@H](OC(C)=O)C(C)(C)[C@@H]3C[C@@H](OC3OC(COC(C)=O)C(O)C(O)C3O)[C@]12C (some centres undefined)
GI50: 2.44 µM (inactive)
//
compound: CC(=O)O/N=C/c1ncccc1OC(C)=O
GI50: > 100 µM (inactive)
//
compound: Cc1ccc(NP(=O)(Oc2ccccc2)N(CCCl)CCCl)cc1 (centres undefined)
GI50: 34.6 µM (inactive)
//
compound: CC(=O)OCC1OC(OCCCOP(=O)(OCCC#N)OCC2OC(n3cnc4c(N)ncnc43)C(OC(=O)c3ccccc3)C2OC(=O)c2ccccc2)C(OC(C)=O)C(OC(C)=O)C1OC(C)=O (centres undefined)
GI50: > 100 µM (inactive)
//
compound: CC(C)=CCN1CC(C)C(=O)Nc2cc(Cl)ccc21 (centres undefined)
GI50: 25 µM (inactive)
//
compound: COC(=O)[C@@H]1C=CCN1S(=O)(=O)c1ccc(C)cc1
GI50: > 100 µM (inactive)
//
compound: CCc1cc(Cc2cc(Cl)c(NC(=O)C(=O)C3NC(=O)NC3=O)c(CC)c2)cc(Cl)c1NC(=O)C(=O)C1NC(=O)NC1=O (centres undefined)
GI50: 94.4 µM (inactive)
